Each recorded value in this set is attributed to patent US20140120087A1.

Tgt: Mps-1 kinase (Homo sapiens)
Method: Mps-1 kinase assay with 2 mM ATP (TR-FRET)
Value type: IC50 (nM)

> print(dat)
                                        mol                          tgt  value.type  val
1  CC(C)S(=O)(=O)c1ccc(Nc2nc3ccc(-c4ccc(C(=O)NCc5ccc(F)cc5)cc4)cn3n2)c(OC(F)F)c1  Mps-1 kinase (Homo sapiens)        IC50  3.5
2  Cc1cc(C(=O)NCCF)ccc1Nc1nc2ccc(-c3ccc(NC(=O)Cc4ccc(F)cc4)cc3)cn2n1  Mps-1 kinase (Homo sapiens)        IC50  4.3
3  COc1cc(C(=O)NC(C)(C)CO)ccc1Nc1nc2ccc(-c3ccc(C(=O)NCc4ccc(F)cc4)cc3)cn2n1  Mps-1 kinase (Homo sapiens)        IC50  1.5
4  NC(=O)c1ccc(Nc2nc3ccc(-c4ccc(NC(=O)Cc5ccc(F)cc5)cc4)cn3n2)c(OC(F)(F)F)c1  Mps-1 kinase (Homo sapiens)        IC50  2.7

I. CCNC(=O)c1ccc(Nc2nc3ccc(-c4ccc(C(=O)NCc5cccc(F)c5)cc4)cn3n2)c(OC)c1
II. COc1cc(C(=O)NC(C)(C)CO)ccc1Nc1nc2ccc(-c3ccc(C(=O)NCc4ccc(F)cc4)c(F)c3)cn2n1
III. COc1cc(C(=O)NCCO)ccc1Nc1nc2ccc(-c3ccc(C(=O)NCc4ccc(F)cc4)cc3)cn2n1
IV. Cc1cc(S(C)(=O)=O)ccc1Nc1nc2ccc(-c3ccc(C(=O)NCc4ccc(F)cc4)cc3)cn2n1
Ascending by IC50, please: list the compounds accordingly. Answer format: list of labels, ordered as asked.
III, IV, II, I

* * *

Tgt: Mps-1 kinase (Homo sapiens, UniProt P33981)
Sequence (P33981 1-857): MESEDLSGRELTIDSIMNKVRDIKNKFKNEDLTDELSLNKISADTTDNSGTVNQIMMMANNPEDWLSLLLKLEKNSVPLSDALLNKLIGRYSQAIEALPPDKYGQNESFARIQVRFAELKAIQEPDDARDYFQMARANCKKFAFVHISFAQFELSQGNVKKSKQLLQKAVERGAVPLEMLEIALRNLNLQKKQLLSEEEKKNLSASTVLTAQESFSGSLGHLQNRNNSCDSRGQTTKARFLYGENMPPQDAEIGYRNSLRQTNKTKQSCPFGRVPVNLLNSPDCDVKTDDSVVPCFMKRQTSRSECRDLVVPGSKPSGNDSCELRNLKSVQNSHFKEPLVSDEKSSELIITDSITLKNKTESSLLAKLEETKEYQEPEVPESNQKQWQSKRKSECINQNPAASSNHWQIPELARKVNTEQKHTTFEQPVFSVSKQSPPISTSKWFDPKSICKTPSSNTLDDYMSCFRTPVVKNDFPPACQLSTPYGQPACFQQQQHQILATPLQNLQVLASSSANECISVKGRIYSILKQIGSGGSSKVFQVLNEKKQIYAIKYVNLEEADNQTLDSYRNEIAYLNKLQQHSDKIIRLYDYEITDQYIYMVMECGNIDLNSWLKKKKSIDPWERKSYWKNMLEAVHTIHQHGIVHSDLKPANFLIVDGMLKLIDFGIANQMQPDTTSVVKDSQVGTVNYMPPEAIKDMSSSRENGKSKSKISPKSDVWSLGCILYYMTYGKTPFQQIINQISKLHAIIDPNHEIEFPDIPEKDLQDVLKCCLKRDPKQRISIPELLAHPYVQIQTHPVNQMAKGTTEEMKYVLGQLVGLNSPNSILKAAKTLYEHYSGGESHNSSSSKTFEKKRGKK
Method: Mps-1 kinase assay with 2 mM ATP (TR-FRET)
pIC50: −log10 of the molar value.
Value type: pIC50

> print(dat)
                                   compound   val
1  COc1ccc(Nc2nc3ccc(-c4ccc(C(=O)NCc5ccc(F)cc5)cc4)cn3n2)c(C)c1 [Example 12.71]  8.06

A. COc1cc(C(=O)NCCCF)ccc1Nc1nc2ccc(-c3ccc(NC(=O)Cc4ccc(F)cc4)cc3)cn2n1 [Example 12.11]
B. COc1cc(S(C)(=O)=O)ccc1Nc1nc2ccc(-c3ccc(C(=O)NCc4ccc(F)cc4)c(OC)c3)cn2n1 [Example 09.1]
Kindly compare A with B and tell me which has the lower pIC50 figure. Answer format: the label of the selected item.
B

A. Cc1cc(C(=O)NCC(F)(F)F)ccc1Nc1nc2ccc(-c3ccc(NC(=O)Cc4ccc(F)cc4)cc3)cn2n1 [Example 12.29]
B. COc1cc(C(=O)NCC(F)(F)F)ccc1Nc1nc2ccc(-c3ccc(NC(=O)Cc4ccc(F)cc4)cc3)cn2n1 [Example 01.31]
C. CCNC(=O)c1cc(C)c(Nc2nc3ccc(-c4ccc(NC(=O)Cc5ccc(F)cc5)cc4)cn3n2)cn1 [Example 12.37]
D. CCOc1cc(C(=O)NCCO)ccc1Nc1nc2ccc(-c3ccc(C(=O)NCC4CC4)cc3)cn2n1 [Example 06.3]
E. CCN(CC)C(=O)c1ccc(Nc2nc3ccc(-c4ccc(NC(=O)Cc5ccc(F)cc5)cc4)cn3n2)c(OC)c1 [Example 01.1]
Sort by pIC50, descending. Answer format: list of labels, ordered as asked.
E, A, B, C, D
(E: 8.92, A: 8.64, B: 8.30, C: 7.89, D: 7.68)
